Provide the recorded log10 of Ki for the entries that follow.
- Target: UniProt:P42262
- Sequence (P42262 whole entry): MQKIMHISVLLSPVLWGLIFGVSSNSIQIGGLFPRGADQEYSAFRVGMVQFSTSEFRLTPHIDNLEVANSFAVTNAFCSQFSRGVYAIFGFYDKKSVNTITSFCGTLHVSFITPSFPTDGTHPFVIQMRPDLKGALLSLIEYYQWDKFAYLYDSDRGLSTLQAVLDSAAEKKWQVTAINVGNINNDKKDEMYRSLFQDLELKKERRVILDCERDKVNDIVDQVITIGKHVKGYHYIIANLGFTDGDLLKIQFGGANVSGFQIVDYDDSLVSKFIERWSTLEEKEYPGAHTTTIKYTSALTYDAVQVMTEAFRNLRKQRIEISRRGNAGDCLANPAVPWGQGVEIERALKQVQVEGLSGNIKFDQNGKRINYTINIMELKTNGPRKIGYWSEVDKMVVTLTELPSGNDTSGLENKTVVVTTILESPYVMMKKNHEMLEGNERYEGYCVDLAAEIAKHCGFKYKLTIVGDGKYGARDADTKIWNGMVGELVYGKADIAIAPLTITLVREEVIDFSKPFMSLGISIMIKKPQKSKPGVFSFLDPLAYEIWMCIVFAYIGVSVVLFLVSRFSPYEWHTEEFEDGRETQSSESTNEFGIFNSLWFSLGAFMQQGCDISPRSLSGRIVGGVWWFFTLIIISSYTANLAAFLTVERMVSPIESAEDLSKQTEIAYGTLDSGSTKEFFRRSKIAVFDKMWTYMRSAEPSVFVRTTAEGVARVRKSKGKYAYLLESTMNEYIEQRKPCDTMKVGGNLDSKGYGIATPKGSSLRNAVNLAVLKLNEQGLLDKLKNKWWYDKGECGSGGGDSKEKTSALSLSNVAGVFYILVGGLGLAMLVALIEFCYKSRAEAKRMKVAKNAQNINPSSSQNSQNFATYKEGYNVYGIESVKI
- Protocol description: Displacement of [3H]AMPA from homomeric recombinant GluA2 receptor (unknown origin)
Hi team, quick reminder: these entries are log10 of Ki (µM).

Prompt: // returns reported log10 of Ki for input O=C(O)[C@@H]1C[C@H]2C[C@@H](Oc3cc(CCc4ccccc4)ccc3-c3nnn[nH]3)CC[C@H]2CN1
Completion: 0.98

Prompt: Any idea what its log10 of Ki is? The compound is O=C(O)[C@@H]1C[C@H]2C[C@@H](Oc3ccccc3-c3nn[nH]n3)CC[C@H]2CN1
Completion: 1.20

Prompt: Can you share its log10 of Ki? I mean this compound: Cl.O=C(O)[C@@H]1C[C@H]2C[C@@H](Oc3cc(Cc4ccccc4)ccc3-c3nnn[nH]3)CC[C@H]2CN1
Completion: 0.98

Prompt: log10 of Ki for O=C(O)[C@@H]1C[C@H]2C[C@@H](Oc3ccc(Cl)cc3-c3nnn[nH]3)CC[C@H]2CN1 ?
Completion: -0.40

Prompt: Find the recorded log10 of Ki belonging to CC(C)Oc1ccc(-c2nnn[nH]2)c(O[C@H]2CC[C@H]3CN[C@H](C(=O)O)C[C@H]3C2)c1.Cl and report it.
Completion: 1.08

Prompt: Can you look up the measured log10 of Ki of O=C(O)[C@@H]1C[C@H]2C[C@@H](Oc3cc(-c4cccs4)ccc3-c3nnn[nH]3)CC[C@H]2CN1 for me?
Completion: 0.64

Prompt: Fill blank: measured log10 of Ki of the compound O=C(O)[C@@H]1C[C@H]2C[C@@H](Oc3cc(-c4nccs4)ccc3-c3nnn[nH]3)CC[C@H]2CN1 is ____.
Completion: 0.34

Prompt: Quick one: log10 of Ki for Cc1ccc(-c2nnn[nH]2)c(O[C@H]2CC[C@H]3CN[C@H](C(=O)O)C[C@H]3C2)c1 ?
Completion: 0.72

Prompt: GET /values?readout=log10 of Ki&item= COc1cccc(N[C@H]2CC[C@H]3CN[C@H](C(=O)O)C[C@H]3C2)c1-c1nnn[nH]1
Completion: 2.26

Prompt: Can you look up the measured log10 of Ki of O=C(O)[C@@H]1C[C@H]2C[C@@H](Nc3ccccc3-c3nn[nH]n3)CC[C@H]2CN1 for me?
Completion: 0.78

Prompt: So what's the measured log10 of Ki for this one? O=C(O)[C@@H]1C[C@H]2C[C@@H](Nc3cccc(Cl)c3-c3nnn[nH]3)CC[C@H]2CN1
Completion: 0.81

Prompt: Which log10 of Ki value is on record for COc1ccc(-c2nnn[nH]2)c(O[C@H]2CC[C@H]3CN[C@H](C(=O)O)C[C@H]3C2)c1 ?
Completion: 0.30

Prompt: Record request: log10 of Ki value, item Cl.O=C(O)[C@@H]1C[C@H]2C[C@@H](Oc3cc(OCc4ccccc4)ccc3-c3nnn[nH]3)CC[C@H]2CN1
Completion: 1.23

Prompt: Quick one: log10 of Ki for O=C(O)[C@@H]1C[C@H]2C[C@@H](Oc3c(F)cccc3-c3nnn[nH]3)CC[C@H]2CN1 ?
Completion: 2.65

Prompt: Suppose we examine the compound O=C(O)[C@@H]1C[C@H]2C[C@@H](Oc3cc(-c4ccccc4Cl)ccc3-c3nnn[nH]3)CC[C@H]2CN1 ; what log10 of Ki value has been reported?
Completion: 1.11

Prompt: Requested field: log10 of Ki. Item: O=C(O)[C@@H]1C[C@H]2C[C@@H](Nc3cc(-c4ccccc4)ccc3-c3nnn[nH]3)CC[C@H]2CN1
Completion: 0.54

Prompt: So what does the record say about log10 of Ki for O=C(O)[C@@H]1C[C@H]2C[C@@H](Oc3cc(-c4cccnc4)ccc3-c3nnn[nH]3)CC[C@H]2CN1 ?
Completion: 1.30

Prompt: Which log10 of Ki is listed for COc1cccc(O[C@H]2CC[C@H]3CN[C@H](C(=O)O)C[C@H]3C2)c1-c1nnn[nH]1 ?
Completion: 2.40

Each recorded value in this set is attributed to ChEMBL document CHEMBL3085631.
